system: recombinant CYP3A4 (Homo sapiens, UniProt P08684)
Construct: purchased Thermo Fisher Scientific; host or cells: insect cells (microsomes)
Sequence (P08684 2-503 limits assumed): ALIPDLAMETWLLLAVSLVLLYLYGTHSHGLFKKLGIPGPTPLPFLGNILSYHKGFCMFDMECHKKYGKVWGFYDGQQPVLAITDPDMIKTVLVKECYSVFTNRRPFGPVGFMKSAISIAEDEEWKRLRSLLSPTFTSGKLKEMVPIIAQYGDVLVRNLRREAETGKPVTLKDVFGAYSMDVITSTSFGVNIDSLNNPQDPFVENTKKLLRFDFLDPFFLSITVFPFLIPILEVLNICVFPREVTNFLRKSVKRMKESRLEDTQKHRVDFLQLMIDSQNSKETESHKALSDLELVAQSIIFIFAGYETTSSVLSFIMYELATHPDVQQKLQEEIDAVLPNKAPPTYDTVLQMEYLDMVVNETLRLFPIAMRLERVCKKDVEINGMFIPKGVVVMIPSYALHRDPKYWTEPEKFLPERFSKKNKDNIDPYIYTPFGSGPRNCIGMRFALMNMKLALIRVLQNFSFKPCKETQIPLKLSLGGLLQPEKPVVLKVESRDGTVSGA
protocol_summary: CYP3A4 enzyme kinetics, Lineweaver–Burk plot and secondary plot for Ki
Format: in vitro ADME
details: 1–20 μM BOMCC, 3, 10, 30 and 100 μM betanin, 30 min incubation; read-out: Ki (inhibition constant) for CYP3A4
pKi: −log10 of the molar value.
quantity_kind: pKi

[[record]]
compound = "O=C(O)C1=C/C(=C/C=[N+]2/c3cc(O)c(OC4OC(CO)[C@@H](O)C(O)C4O)cc3CC2C(=O)[O-])CC(C(=O)O)N1 (stereo in doubt) [betanin, Betanin]"
quantity_kind = "pKi"
measured_result = 4.71

